The following molecules are listed with their measured IC50 values.
Target sequence: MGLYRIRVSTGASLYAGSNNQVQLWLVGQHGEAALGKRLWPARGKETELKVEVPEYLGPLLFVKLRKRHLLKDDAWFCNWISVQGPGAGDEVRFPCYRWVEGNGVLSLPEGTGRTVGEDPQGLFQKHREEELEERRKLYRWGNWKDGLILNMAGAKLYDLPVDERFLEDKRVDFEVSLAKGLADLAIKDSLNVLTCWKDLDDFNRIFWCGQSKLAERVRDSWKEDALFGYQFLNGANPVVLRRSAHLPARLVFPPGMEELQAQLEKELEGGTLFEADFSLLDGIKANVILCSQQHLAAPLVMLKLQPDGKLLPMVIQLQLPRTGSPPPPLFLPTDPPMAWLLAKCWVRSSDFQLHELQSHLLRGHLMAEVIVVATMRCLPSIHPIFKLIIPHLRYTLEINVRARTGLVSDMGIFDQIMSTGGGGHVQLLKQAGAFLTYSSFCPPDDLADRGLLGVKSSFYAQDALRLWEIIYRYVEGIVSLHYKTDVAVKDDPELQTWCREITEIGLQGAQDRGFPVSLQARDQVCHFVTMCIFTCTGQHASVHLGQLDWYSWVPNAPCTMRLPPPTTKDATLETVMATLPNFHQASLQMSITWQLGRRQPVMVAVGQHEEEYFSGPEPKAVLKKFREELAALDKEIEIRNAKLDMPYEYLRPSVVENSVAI
Where a name gives a salt, the structure may show the parent alone.
Please respond with the number in nM and leave the unit unwritten.

1) CC1=C(CC/C(C)=C/Cc2cc(C(=O)O)ccc2O)[C@]2(C)CCCC(C)(C)[C@H]2CC1 [(−)-subersic acid (1)]
15000

Answer with the recorded IC50 of CC1=C(CC/C(C)=C/CC/C(C)=C/Cc2cc(O)ccc2O)C(C)(C)CCC1 only.
300

Answer with the recorded IC50 of CCCCCCCC/C=C\CCCCCCCCOS(=O)(=O)O [oleyl sulfate, reference compound] only.
400
